tested_target: 7B2
measurement_notes: SPR
No end group written: not given here.
observed_property: pKd
Field pKd (float): negative decimal logarithm of the concentration in molar.

Incoming: Please report the measured pKd for WGCSGKLICTT-NH2 (ends and bridges not checked) [synthetic gp41 peptide (residues 596-606) with C-terminal amidation]
Outgoing: 6.20
